meta.source: patent US9975885B2

test system: Ten CoV 3CL^pro's (FIPV-, PEDV-, NL63-, HKU1-, OC43-, SARS-, HKU4-, HKU5-, HKU9-, IBV-3CL^pro); type: biochemical, coronaviruses (α-, β-, γ-CoV)
# key: entry, value: Score (performance metric score)
Field format: numeric only.

For orientation, consider the following solved cases.
{"Compound": "CC(C)C(=O)Nc1ccc(N(C(=O)Cn2nnc3ccccc32)C(C(=O)NCc2ccccc2)c2ccc(OCCCN(C)C)cc2)cc1 (stereo not shown)", "Score (performance metric score)": 19.8}
{"Compound": "CC(C)(C)NC(=O)C(c1cccnc1)N(C(=O)c1c[nH]cn1)c1ccc(C2CCCCC2)cc1 (stereo not shown)", "Score (performance metric score)": 6.6}
{"Compound": "COc1cccc(C(C(=O)NCc2ccccc2)N(C(=O)Cn2nnc3ccccc32)c2ccc(NC(=O)C(C)C)cc2)c1 (stereo not shown)", "Score (performance metric score)": 6.6}
{"Compound": "CC(C)(C)NC(=O)C(c1ccsc1)N(C(=O)Cn1nnc2ccccc21)c1ccc(NC(=O)C2CC2)cc1 (stereo not shown) [Compound 2P, reference compound]", "Score (performance metric score)": 8.5}

Query CC(C)C(=O)Nc1ccc(N(C(=O)Cn2nnc3ccccc32)C(C(=O)NCc2ccccc2)c2ccc(Cl)c(F)c2)cc1 (stereo not shown) yields Score (performance metric score) of 9.8
